This collection of values is drawn from paper PMC9569680.

biological target: GST-HBx (genotype D); HBx-D (Hepatitis B virus); construct: gene X; N-terminal GST tag kept (GST 26 kDa; GST-HBx 43 kDa), full-length HBx (154 aa), pGEX, E. coli BL21 (DE3), glutathione-Sepharose; assay: biochemical; set-up: Surface plasmon resonance imaging; GST-HBx injected over chip of photo-crosslinked FDA-approved drugs (PlexArray HT), Langmuir fit; settings: read-out: kon
Structures can show the parent of a compound that is named as a salt.
Item-by-item account of kon
Just the number in M⁻¹ s⁻¹, nothing appended.

Below, each entry is followed by its recorded kon result.
CCCCCCCCCCCC[N+](C)(C)CCOc1ccccc1 [Domiphen Bromide] : 105000
CC[C@H]1OC(=O)[C@H](C)[C@@H](O[C@H]2C[C@@](C)(OC)[C@@H](O)[C@H](C)O2)[C@H](C)[C@@H](O[C@@H]2O[C@H](C)C[C@H](N(C)C)[C@H]2O)[C@](C)(O)C[C@@H](C)CN(C)[C@H](C)[C@@H](O)[C@]1(C)O : 85100
Cc1cnc(C(=O)NCCc2ccc(S(=O)(=O)NC(=O)NC3CCCCC3)cc2)cn1 [Glipizide] : 45100
CCC1=C(C)CN(C(=O)NCCc2ccc(S(=O)(=O)NC(=O)N[C@H]3CC[C@H](C)CC3)cc2)C1=O [Glimepiride] : 37300
CCOc1nc2cccc(C(=O)O)c2n1Cc1ccc(-c2ccccc2-c2noc(=O)[nH]2)cc1 : 146000

Lookup: For CCCCC(CC)CNC(=N)NC(=N)NCCCCCCNC(=N)NC(=N)NCC(CC)CCCC (stereo not shown) [Alexidine hydrochloride] , what is its reported kon?
Found: 158000

Lookup: Okay, and `COc1ccc(/C=C/C(=O)Nc2ccccc2C(=O)O)cc1OC` ?
Found: 194000

* * *

molecular target: GST-HBx (genotype D); HBx-D (Hepatitis B virus); construct: gene X; N-terminal GST tag kept (GST 26 kDa; GST-HBx 43 kDa), full-length HBx (154 aa), pGEX, E. coli BL21 (DE3), glutathione-Sepharose; assay: SPR imaging, compound array (PlexArray HT); format: binding
pKd: −log10 of the molar value. Structures can show the parent of a compound that is named as a salt.
Assign class by pKd: not lower than 10 means T; lower than 10 means F.

Illustrative cases are given below, each with its answer.
CCCCC(CC)CNC(=N)NC(=N)NCCCCCCNC(=N)NC(=N)NCC(CC)CCCC (stereo not drawn) [Alexidine hydrochloride] : T
COc1ccc(/C=C/C(=O)Nc2ccccc2C(=O)O)cc1OC : T
CCCCC(=O)N(Cc1ccc(-c2ccccc2-c2nn[nH]n2)cc1)[C@H](C(=O)O)C(C)C : F
CC1(C)[C@@H](O[C@H]2O[C@H](C(=O)O)[C@@H](O)[C@H](O)[C@H]2O[C@@H]2O[C@H](C(=O)O)[C@@H](O)[C@H](O)[C@H]2O)CC[C@]2(C)[C@H]3C(=O)C=C4[C@@H]5C[C@@](C)(C(=O)O)CC[C@]5(C)CC[C@@]4(C)[C@]3(C)CC[C@@H]12 [Ammonium glycyrrhizinate] : F
CC[C@H]1OC(=O)[C@H](C)[C@@H](O[C@H]2C[C@@](C)(OC)[C@@H](O)[C@H](C)O2)[C@H](C)[C@@H](O[C@@H]2O[C@H](C)C[C@H](N(C)C)[C@H]2O)[C@](C)(O)C[C@@H](C)CN(C)[C@H](C)[C@@H](O)[C@]1(C)O : T

Turning to the following compound.
Lookup: For this compound, is measured pKd 10 or higher? CCCCCCCCCCCC[N+](C)(C)CCOc1ccccc1 [Domiphen Bromide]
Found: T

* * *

target: GST-HBx (genotype D); HBx-D (Hepatitis B virus); construct: gene X; N-terminal GST tag kept (GST 26 kDa; GST-HBx 43 kDa), full-length HBx (154 aa), pGEX, E. coli BL21 (DE3), glutathione-Sepharose; assay: biochemical; set-up: Surface plasmon resonance imaging; GST-HBx injected over chip of photo-crosslinked FDA-approved drugs (PlexArray HT), Langmuir fit; settings: read-out: kon
Rule: kon of 70000 M⁻¹ s⁻¹ or more gives fulfilled; anything lower gives not fulfilled.

CC(C)NCC(O)COc1ccc(CCOCC2CC2)cc1 (stereo not shown) [Betaxolol] : not fulfilled

Lookup: Test whether the compound CC(C(=O)O)c1ccc2c(c1)Cc1cccnc1O2 (stereo not shown) [Pranoprofen] records kon of 70000 M⁻¹ s⁻¹ or higher.
Found: not fulfilled

Lookup: Quick one: CC(C(=O)O)c1ccc(C(=O)c2cccs2)cc1 (stereo not shown) [Suprofen]
Found: fulfilled

Lookup: Could you do the same for CCOc1nc2cccc(C(=O)O)c2n1Cc1ccc(-c2ccccc2-c2nnn[nH]2)cc1 [Candesartan] , please?
Found: fulfilled

Lookup: Now consider CCCCC(=O)N(Cc1ccc(-c2ccccc2-c2nn[nH]n2)cc1)[C@H](C(=O)O)C(C)C [Valsartan] .
Found: fulfilled

Lookup: Please give the result for CC1(C)[C@@H](O[C@H]2O[C@H](C(=O)O)[C@@H](O)[C@H](O)[C@H]2O[C@@H]2O[C@H](C(=O)O)[C@@H](O)[C@H](O)[C@H]2O)CC[C@]2(C)[C@H]3C(=O)C=C4[C@@H]5C[C@@](C)(C(=O)O)CC[C@]5(C)CC[C@@]4(C)[C@]3(C)CC[C@@H]12 [Ammonium glycyrrhizinate] too.
Found: fulfilled

* * *

target: GST-HBx (genotype B); HBx-B; construct: N-terminal GST tag kept (GST 26 kDa; GST-HBx 43 kDa), full-length HBx (154 aa), pGEX, E. coli BL21 (DE3), glutathione-Sepharose; assay: SPR imaging, compound array (PlexArray HT); settings: PBS, 25 °C; compound UV-linked to chip surface, GST-HBx 25-100 nM as analyte
Items are presented alongside their recorded pKd.
Please report pKd as the negative decimal logarithm of the molar concentration, giving only the number.

COc1ccc(/C=C/C(=O)Nc2ccccc2C(=O)O)cc1OC [Tranilast] : 9.74
CC[C@H]1OC(=O)[C@H](C)[C@@H](O[C@H]2C[C@@](C)(OC)[C@@H](O)[C@H](C)O2)[C@H](C)[C@@H](O[C@@H]2O[C@H](C)C[C@H](N(C)C)[C@H]2O)[C@](C)(O)C[C@@H](C)CN(C)[C@H](C)[C@@H](O)[C@]1(C)O [Azithromycin] : 8.88

Next, consider the following molecule.
Lookup: Item: CCCCC(=O)N(Cc1ccc(-c2ccccc2-c2nn[nH]n2)cc1)[C@H](C(=O)O)C(C)C [Valsartan] Test system: GST-HBx (genotype B); HBx-B Read-out: pKd Value: ?
Found: 8.10

* * *

target: GST-HBx (genotype D); HBx-D (Hepatitis B virus); construct: gene X; N-terminal GST tag kept (GST 26 kDa; GST-HBx 43 kDa), full-length HBx (154 aa), pGEX, E. coli BL21 (DE3), glutathione-Sepharose; assay: biochemical; design: Surface plasmon resonance imaging; GST-HBx injected over chip of photo-crosslinked FDA-approved drugs (PlexArray HT), Langmuir fit
Could you please classify the records by Kd using these ranges: I (below 2 nM), II (2 nM to below 4 nM), III (4 nM or more)

CC(C)[C@H]1CC[C@H](C(=O)N[C@H](Cc2ccccc2)C(=O)O)CC1 [Nateglinide] : II
Cc1cnc(C(=O)NCCc2ccc(S(=O)(=O)NC(=O)NC3CCCCC3)cc2)cn1 [Glipizide] : III
CC(C(=O)O)c1ccc(C(=O)c2cccs2)cc1 (stereo not shown) : II
CC(C(=O)O)c1ccc2c(c1)Cc1cccnc1O2 (stereo not shown) : III
CCC1=C(C)CN(C(=O)NCCc2ccc(S(=O)(=O)NC(=O)N[C@H]3CC[C@H](C)CC3)cc2)C1=O [Glimepiride] : III
CCOc1nc2cccc(C(=O)O)c2n1Cc1ccc(-c2ccccc2-c2noc(=O)[nH]2)cc1 : II

Lookup: Categorize the following entry: `CC[C@H]1OC(=O)[C@H](C)[C@@H](O[C@H]2C[C@@](C)(OC)[C@@H](O)[C@H](C)O2)[C@H](C)[C@@H](O[C@@H]2O[C@H](C)C[C@H](N(C)C)[C@H]2O)[C@](C)(O)C[C@@H](C)CN(C)[C@H](C)[C@@H](O)[C@]1(C)O`
Found: I

Lookup: Another molecule: `CC1=NN(c2ccc(C)c(C)c2)C(=O)/C1=N\Nc1cccc(-c2cccc(C(=O)O)c2)c1O`
Found: III

Lookup: Lookup `CCOc1nc2cccc(C(=O)O)c2n1Cc1ccc(-c2ccccc2-c2nnn[nH]2)cc1`
Found: I

Lookup: Repeat for the following molecule: `O=C(O)c1ccc(-n2nc(-c3ccccc3O)nc2-c2ccccc2O)cc1`
Found: I

* * *

Below, each of the compounds is paired with its reported Kd value.
target: GST-HBx (genotype D); HBx-D (Hepatitis B virus); construct: gene X; N-terminal GST tag kept (GST 26 kDa; GST-HBx 43 kDa), full-length HBx (154 aa), pGEX, E. coli BL21 (DE3), glutathione-Sepharose; assay: biochemical; set-up: Surface plasmon resonance imaging; GST-HBx injected over chip of photo-crosslinked FDA-approved drugs (PlexArray HT), Langmuir fit
Express your answer in nM, writing the number without its unit.

Worked cases, answers included:
Cc1noc(NS(=O)(=O)c2ccc(N)cc2)c1C [Sulfisoxazole] : 9.88
CC[C@H]1OC(=O)C[C@@H](O)[C@H](C)[C@@H](O[C@@H]2O[C@H](C)[C@@H](O)[C@H](N(C)C)[C@H]2O)[C@@H](CCN2C[C@H](C)C[C@H](C)C2)C[C@@H](C)C(=O)/C=C/C(C)=C/[C@@H]1CO[C@@H]1O[C@H](C)[C@@H](O)[C@@H](OC)[C@H]1OC [Tilmicosin] : 1.3

Okay, next one:
Lookup: Entry CC(C)NCC(O)COc1ccc(CCOCC2CC2)cc1 (stereo not drawn) [Betaxolol] : reported Kd = ?
Found: 1.28
